- Tested on: Mycobacterium tuberculosis
- Assay notes: Antimycobacterial activity against 6-((1-(2-(7-chloro-2-oxo-1,8-naphthyridin-1(2H)-yl)ethyl)piperidin-4-ylamino)methyl)-2H-pyrido[3,2-b][1,4]oxazin-3(4H)-one resistant Mycobacterium tuberculosis H37Rv harboring DNA gyraseA A74V mutant incubated for 7 days by microdilution method
- Assay type: functional
Exercise: for every item that follows, state its recorded MIC.
The reply should read as a number followed by its unit.

input: Entry NNC(=O)c1ccncc1 [ISONIAZID] : reported MIC = ?
output: 0.06 µM

input: Entry Cc1ncc(CNC2CCN(CCn3c(=O)ccc4ncc(F)cc43)CC2)cc1Cl : reported MIC = ?
output: 2 µM

input: Entry CO[C@H]1/C=C/O[C@@]2(C)Oc3c(C)c(O)c4c(O)c(c(/C=N/N5CCN(C)CC5)c(O)c4c3C2=O)NC(=O)/C(C)=C\C=C\[C@H](C)[C@H](O)[C@@H](C)[C@@H](O)[C@@H](C)[C@H](OC(C)=O)[C@@H]1C [RIFAMPIN] : reported MIC = ?
output: 0.008 µM

input: Entry O=C1COc2ccc(CNC3CCN(CCn4c(=O)ccc5ccc(Cl)nc54)CC3)nc2N1 : reported MIC = ?
output: 4 µM

----------
- Tested on: Mycobacterium tuberculosis
- Assay notes: Antimycobacterial activity against 6-((1-(2-(7-chloro-2-oxo-1,8-naphthyridin-1(2H)-yl)ethyl)piperidin-4-ylamino)methyl)-2H-pyrido[3,2-b][1,4]oxazin-3(4H)-one resistant Mycobacterium tuberculosis H37Rv harboring DNA gyraseA A74V mutant incubated for 7 days by microdilution method
- Type: functional
Property name: MIC (µM)
State the answer as a number, implicitly in µM.

input: GET /values?readout=MIC&system=Mycobacterium tuberculosis&item= COc1c(N2C[C@@H]3CCCN[C@@H]3C2)c(F)cc2c(=O)c(C(=O)O)cn(C3CC3)c12
output: 0.25

input: GET /values?readout=MIC&system=Mycobacterium tuberculosis&item= O=C1COc2ccc(CN[C@@H]3CCN(CCn4c(=O)ccc5ncc(Oc6cccnc6)cc54)C[C@@H]3F)nc2N1
output: 50

input: GET /values?readout=MIC&system=Mycobacterium tuberculosis&item= O=C1COc2ccc(CNC3CCN(CCn4c(=O)ccc5ccc(Oc6cccnc6)nc54)CC3)nc2N1
output: 8
